- system-tested: T1, IL-18 receptor (IL-18Rαβ) on cells (UniProt Q13478 19-541; O95256 20-599, limits assumed)
- T1 sequence (looked up) 1: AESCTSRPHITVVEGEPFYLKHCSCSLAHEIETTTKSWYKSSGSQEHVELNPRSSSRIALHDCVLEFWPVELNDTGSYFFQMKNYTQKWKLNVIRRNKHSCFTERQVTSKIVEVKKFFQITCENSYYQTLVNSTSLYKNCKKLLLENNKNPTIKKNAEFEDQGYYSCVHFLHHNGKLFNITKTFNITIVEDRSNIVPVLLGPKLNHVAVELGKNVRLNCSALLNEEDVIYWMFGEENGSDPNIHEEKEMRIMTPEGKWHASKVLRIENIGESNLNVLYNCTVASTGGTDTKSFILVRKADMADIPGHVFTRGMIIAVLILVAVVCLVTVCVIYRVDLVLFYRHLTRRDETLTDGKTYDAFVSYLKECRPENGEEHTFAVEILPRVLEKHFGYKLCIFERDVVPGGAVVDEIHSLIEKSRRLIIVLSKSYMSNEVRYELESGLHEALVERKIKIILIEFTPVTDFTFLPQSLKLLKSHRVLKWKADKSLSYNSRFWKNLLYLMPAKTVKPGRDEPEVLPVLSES
- T1 sequence (looked up) 2: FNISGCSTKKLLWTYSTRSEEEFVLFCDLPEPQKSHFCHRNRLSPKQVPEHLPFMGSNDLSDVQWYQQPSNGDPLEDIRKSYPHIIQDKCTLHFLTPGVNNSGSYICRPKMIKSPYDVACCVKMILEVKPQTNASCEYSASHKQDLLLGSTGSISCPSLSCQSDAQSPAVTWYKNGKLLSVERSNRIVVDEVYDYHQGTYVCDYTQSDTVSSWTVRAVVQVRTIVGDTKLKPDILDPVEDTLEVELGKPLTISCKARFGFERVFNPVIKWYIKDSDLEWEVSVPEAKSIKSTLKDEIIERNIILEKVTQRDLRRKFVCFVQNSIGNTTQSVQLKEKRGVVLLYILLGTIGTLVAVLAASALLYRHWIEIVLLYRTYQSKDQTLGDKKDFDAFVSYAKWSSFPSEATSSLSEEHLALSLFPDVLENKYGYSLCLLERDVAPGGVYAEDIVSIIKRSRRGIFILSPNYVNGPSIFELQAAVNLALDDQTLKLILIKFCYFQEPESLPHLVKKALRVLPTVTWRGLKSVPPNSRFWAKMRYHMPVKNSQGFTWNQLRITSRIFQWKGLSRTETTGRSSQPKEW
- experiment-notes: cell-based or functional assay
readout-type: EC50 (pM), HEK-Blue IL-18R reporter assay
Record the value in pM, omitting the unit from your answer.

Please review the following examples before continuing.
| binder | reported-result |
| --- | --- |
| C160 (V11I, C38A, K53A, C76A, D110A, C127A) (ligand) YFGKLESKLSIIRNLNDQVLFIDQGNRPLFEDMTDSDARDNAPRTIFIISMYADSQPRGMAVTISVKCEKISTLSAENKIISFKEMNPPDNIKDTKSDIIFFQRSVPGHANKMQFESSSYEGYFLAAEKERDLFKLILKKEDELGDRSIMFTVQNED | 2.02 |
| C177 (E6K, V11I, C38A, I49R, K53A, T63A, C76A, C127A) (ligand) YFGKLKSKLSIIRNLNDQVLFIDQGNRPLFEDMTDSDARDNAPRTIFIRSMYADSQPRGMAVAISVKCEKISTLSAENKIISFKEMNPPDNIKDTKSDIIFFQRSVPGHDNKMQFESSSYEGYFLAAEKERDLFKLILKKEDELGDRSIMFTVQNED | 0.04 |

Next:
Value of EC50 (pM), HEK-Blue IL-18R reporter assay reported for the binder IL-18 polypeptide SEQ ID NO: 62 (E6K, C38A, K53A, C127A) (ligand) YFGKLKSKLSVIRNLNDQVLFIDQGNRPLFEDMTDSDARDNAPRTIFIISMYADSQPRGMAVTISVKCEKISTLSCENKIISFKEMNPPDNIKDTKSDIIFFQRSVPGHDNKMQFESSSYEGYFLAAEKERDLFKLILKKEDELGDRSIMFTVQNED is 0.17

All figures here come from patent US20240116997A1.
